Listed next: entries and their corresponding Percent Effect.
- SUBJECT OF TEST: Protein translocase subunit SecA (Escherichia coli (strain K12))
- ASSAY SUMMARY: Assay to Identify E. coli SecA ATPase Inhibitors
- Assay type: functional
- Parameters: scale not given: direction of the effect not stated beside the values
- RECORDED CONDITIONS: 30 µM
Entries with a potency or affinity are not part of this list.
VALUE TYPE: Percent Effect (%)

CN(c1ccncn1)C1CC2(CCN(C(=O)c3ccsc3)C2)C1 (stereo not given) : -2.12
COc1cccc(CCC2CCCN(C(=O)C3=NN(C)C(=O)CC3)C2)c1 (stereo not given) : -0.975
CN(C)c1ncccc1CNS(=O)(=O)c1ccccc1F : -0.976
CN(C)CCN1C[C@@H]2CN(C(=O)c3ccsc3)C[C@@H]2C1=O : -7.36
COCCCN1CCCN(C(C)c2nc(C3CC3)no2)CC1 (stereo not given) : -1.91
COc1ccccc1OCCN1CCC(N2CCNC2=O)CC1 : -6.27
Cc1cccc2c1cnn2CCCNC(=O)C(C)C : -4.75
Cc1nc(CNCC2CCCN2c2cccnn2)cs1 (stereo not given) : -2.04
Cc1noc(C)c1CN(C)CCC(=O)N1CCc2sccc2C1 : -4.9
CCn1c(NCc2ccco2)nc2c(C)nn(C)c2c1=O : -2.68
COc1c(CNCc2ccnc(N3CCCC3)c2)c(C)nn1C : -5.03
CCc1nnc2n1CCN(Cc1csc(-c3ccc(C)o3)n1)C2 : -2.83
Cc1cnn(CC2CCCN2C(=O)CCc2c(C)noc2Cl)c1 (stereo not given) : -2.86
CS(=O)(=O)N1Cc2ccccc2C2(CCN(C(=O)c3ccno3)CC2)C1 : 2.76
COc1cc2cc(C(=O)N[C@@H](C)C(=O)O)n(C)c2c(OC)c1OC : 0.309
CN(C)c1cncc(C2CCN(C(=O)CO)CC2)n1 : -3.4
CC(Cn1cccn1)NC(=O)NCc1cccs1 (stereo not given) : -2.75
Cc1cc(NC(=O)CN2CCCC2c2noc(C(C)C)n2)n(C)n1 (stereo not given) : 0.91
COc1cc(CNCc2c(C)nn(C)c2N(C)C)ccn1 : -2.79
CCc1ccc(CN2CCC3(CC2)CC(N2CCN(C)CC2)CO3)cc1 (stereo not given) : -9.52
CC(C)c1nc2c(n1C)CCN(CC(=O)Nc1nccs1)C2 : -4.97
CC(C)c1nnc2n1CCN(C(=O)c1ccnc(N(C)C)c1)C2 : -5.81
CCn1cc2c(n1)C(COC)CN(Cc1ccccn1)C2 (stereo not given) : -4.98
COCc1nc2cc(NCc3ccncc3)ccc2o1 : 6.12
O=C(NCCNc1ncccn1)N(Cc1ccc(F)cc1F)C1CC1 : -3.52

###

- SUBJECT OF TEST: Tyrosyl-tRNA synthetase, putative (Trypanosoma cruzi (strain CL Brener)) (UniProt Q4DSP6)
- Sequence (Q4DSP6 as listed by the source): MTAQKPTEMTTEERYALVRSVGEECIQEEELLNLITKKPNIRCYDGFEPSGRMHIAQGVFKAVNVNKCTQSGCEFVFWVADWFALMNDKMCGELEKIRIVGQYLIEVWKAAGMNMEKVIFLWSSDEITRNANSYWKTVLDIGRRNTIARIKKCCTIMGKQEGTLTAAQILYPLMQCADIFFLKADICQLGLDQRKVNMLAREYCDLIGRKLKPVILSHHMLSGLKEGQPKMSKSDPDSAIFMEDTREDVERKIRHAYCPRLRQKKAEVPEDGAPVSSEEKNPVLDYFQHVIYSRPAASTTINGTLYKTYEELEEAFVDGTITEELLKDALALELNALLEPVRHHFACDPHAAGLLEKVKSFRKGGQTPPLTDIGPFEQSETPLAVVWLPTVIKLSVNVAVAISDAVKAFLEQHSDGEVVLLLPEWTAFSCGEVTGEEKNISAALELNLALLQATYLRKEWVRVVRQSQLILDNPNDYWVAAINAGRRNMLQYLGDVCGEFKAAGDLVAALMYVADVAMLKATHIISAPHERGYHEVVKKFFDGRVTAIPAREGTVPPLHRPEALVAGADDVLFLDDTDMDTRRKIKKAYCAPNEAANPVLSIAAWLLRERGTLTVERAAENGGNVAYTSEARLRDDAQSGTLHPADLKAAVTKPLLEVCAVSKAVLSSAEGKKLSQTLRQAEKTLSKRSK
- ASSAY SUMMARY: Trypanosoma cruzi tyrosyl tRNA synthetase (TcYRS) _High Tyrosine SOP; further: in the data most compounds retested in dose-response had high values
- Type: functional
- Design: scale not given: direction of the effect not stated beside the values
- RECORDED CONDITIONS: 30 µM
VALUE TYPE: Percent Effect

NC(=O)CN1CCC(NC(=O)Nc2nccs2)CC1 : 1.44%
O=C(c1ccno1)N1CCC2(CC1)C(=O)N(CC1CC1)c1ccccc12 : 1.93%
CN(Cc1cnccn1)C(=O)c1ccnc(OC2CCC2)c1 : -0.529%
O=C(c1cccn1Cc1cccs1)N1CCN(C(=O)C2CC2)CC1 : 8.74%
COC(=O)C1CCN(C(=O)c2ccc(N(C)S(C)(=O)=O)c(C)c2)CC1 : 2.66%
c1ccc(-n2ccnc2)c(CNCC2CNc3ccnn3C2)c1 (configuration not stated) : 5.83%
Cn1cnnc1C1CCCN(C(=O)c2cc(Cl)c3c(c2)OCO3)C1 (configuration not stated) : 0.526%
CN(CCO)Cc1nnc(C2CCN(C(=O)c3cccnc3)CC2)n1C : 6.01%
O=S(=O)(NC1=NCN(CCc2cccs2)CN1)c1ccccc1 : 5.29%
Cc1nc(CNCC2CCCN2c2cccnn2)cs1 (configuration not stated) : 2.45%
Cc1nc(CN2CCCC(CCc3ccc(F)cc3F)C2)c[nH]1 (configuration not stated) : 2.66%
CN(CCn1nc2ccccn2c1=O)CC(=O)NC1CC1 : 2.13%
